Would you mind telling me the reported log10 of IC50 of each entry?
Molecular target: Nucleotide-binding oligomerization domain-containing protein 1 (Homo sapiens, UniProt Q9Y239)
Assay: Antagonist activity at human NOD1 expressed in HEK293 cells assessed as reduction in C12-iE-DAP-induced NF-kappaB activation preincubated for 1 hr followed by C12-iE-DAP stimulation and measured after 18 hrs by SEAP reporter gene based spectrophotometric analysis
In our notation, the value equals log10 of IC50 in µM.

Give the reported log10 of IC50 for this compound. CN(CCc1nc2ccccc2n1CC(=O)Nc1ccc2c(c1)CCC2)S(=O)(=O)c1ccccc1
0.41

In one line, give reported log10 of IC50 of the entry O=C(Cn1c(CCNS(=O)(=O)c2ccccc2)nc2ccccc21)Nc1ccc2c(c1)CCC2 .
1.45

Return the recorded log10 of IC50 value; entry: O=C(Cn1c(CCNS(=O)(=O)c2cccnc2)nc2ccccc21)Nc1ccc2c(c1)CCC2
1.51

Query log10 of IC50 for CN(CCCc1nc2ccccc2n1CC(=O)Nc1ccc2c(c1)CCC2)S(=O)(=O)c1ccccc1
0.22

Consider the compound O=C(Cn1c(CCNCc2ccncc2)nc2ccccc21)Nc1ccc2c(c1)CCC2 . State its measured log10 of IC50.
1.44

====

Biological target: Nucleotide-binding oligomerization domain-containing protein 2 (Homo sapiens)
Sequence (Q9HC29 whole entry, the tested form may be a part): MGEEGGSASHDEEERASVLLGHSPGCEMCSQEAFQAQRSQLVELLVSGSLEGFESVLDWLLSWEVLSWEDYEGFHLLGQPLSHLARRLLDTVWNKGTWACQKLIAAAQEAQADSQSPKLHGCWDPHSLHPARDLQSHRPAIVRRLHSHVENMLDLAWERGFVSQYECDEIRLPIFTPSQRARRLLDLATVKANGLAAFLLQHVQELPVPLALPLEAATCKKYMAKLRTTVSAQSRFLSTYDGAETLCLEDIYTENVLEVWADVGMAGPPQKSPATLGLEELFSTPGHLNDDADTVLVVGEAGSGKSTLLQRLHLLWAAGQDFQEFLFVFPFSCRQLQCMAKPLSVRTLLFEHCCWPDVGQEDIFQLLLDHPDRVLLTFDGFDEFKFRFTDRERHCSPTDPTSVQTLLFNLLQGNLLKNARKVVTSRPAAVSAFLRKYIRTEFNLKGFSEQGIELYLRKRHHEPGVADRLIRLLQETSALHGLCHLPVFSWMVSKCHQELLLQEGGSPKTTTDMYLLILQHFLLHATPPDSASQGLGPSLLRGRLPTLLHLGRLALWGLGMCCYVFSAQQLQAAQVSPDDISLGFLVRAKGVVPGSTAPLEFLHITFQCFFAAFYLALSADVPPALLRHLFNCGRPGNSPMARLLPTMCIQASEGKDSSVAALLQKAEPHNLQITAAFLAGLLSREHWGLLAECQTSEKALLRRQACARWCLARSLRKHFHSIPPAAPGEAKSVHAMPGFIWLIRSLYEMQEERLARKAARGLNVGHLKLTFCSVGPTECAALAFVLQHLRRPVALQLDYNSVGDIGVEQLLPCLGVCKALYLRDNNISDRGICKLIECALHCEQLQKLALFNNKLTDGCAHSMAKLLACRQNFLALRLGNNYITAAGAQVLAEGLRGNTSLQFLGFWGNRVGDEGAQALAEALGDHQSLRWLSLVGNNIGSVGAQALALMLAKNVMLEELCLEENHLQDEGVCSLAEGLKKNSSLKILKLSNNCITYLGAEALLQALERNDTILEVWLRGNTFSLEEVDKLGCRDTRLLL
Experiment: Antagonist activity at human NOD2 expressed in HEK293 cells assessed as reduction in MDP-induced NF-kappaB activation preincubated for 1 hr followed by MDP stimulation and measured after 18 hrs by SEAP reporter gene based spectrophotometric analysis
Assay type: cell-based
Conditions: read-out: IC50
recorded-endpoint: pIC50
Expect pIC50 as a plain number equal to -log10 of the molar concentration.

Check the records and state pIC50 for O=C(Cn1c(CCNS(=O)(=O)c2ccccc2)nc2ccccc21)Nc1ccc2c(c1)CCC2
5.28

Item O=C(Cn1c(CCNS(=O)(=O)c2cccnc2)nc2ccccc21)Nc1ccc2c(c1)CCC2 : provide pIC50
4.79

Give the reported pIC50 for this compound. CN(CCCc1nc2ccccc2n1CC(=O)Nc1ccc2c(c1)CCC2)S(=O)(=O)c1ccccc1
5.29

Input O=C(Cn1c(CCNC(=O)c2ccccc2)nc2ccccc21)Nc1ccc2c(c1)CCC2 , output reported pIC50.
5.21

Please report pIC50 for the following compound: CC(C)(C)OC(=O)N1CCC(C(=O)NCCc2nc3ccccc3n2CC(=O)Nc2ccc3c(c2)CCC3)CC1
4.97

In one line, give reported pIC50 of the entry O=C(Cn1c(CCNCc2ccncc2)nc2ccccc21)Nc1ccc2c(c1)CCC2 .
4.64

Fill in pIC50 for record O=C(CCc1nc2ccccc2n1CC(=O)Nc1ccc2c(c1)CCC2)Nc1ccccc1
5.06

Complete the entry with pIC50 for CN(CCc1nc2ccccc2n1CC(=O)Nc1ccc2c(c1)CCC2)S(=O)(=O)c1ccccc1
6.20

====

Molecular target: Nucleotide-binding oligomerization domain-containing protein 1 (Homo sapiens)
Sequence (Q9Y239 whole entry): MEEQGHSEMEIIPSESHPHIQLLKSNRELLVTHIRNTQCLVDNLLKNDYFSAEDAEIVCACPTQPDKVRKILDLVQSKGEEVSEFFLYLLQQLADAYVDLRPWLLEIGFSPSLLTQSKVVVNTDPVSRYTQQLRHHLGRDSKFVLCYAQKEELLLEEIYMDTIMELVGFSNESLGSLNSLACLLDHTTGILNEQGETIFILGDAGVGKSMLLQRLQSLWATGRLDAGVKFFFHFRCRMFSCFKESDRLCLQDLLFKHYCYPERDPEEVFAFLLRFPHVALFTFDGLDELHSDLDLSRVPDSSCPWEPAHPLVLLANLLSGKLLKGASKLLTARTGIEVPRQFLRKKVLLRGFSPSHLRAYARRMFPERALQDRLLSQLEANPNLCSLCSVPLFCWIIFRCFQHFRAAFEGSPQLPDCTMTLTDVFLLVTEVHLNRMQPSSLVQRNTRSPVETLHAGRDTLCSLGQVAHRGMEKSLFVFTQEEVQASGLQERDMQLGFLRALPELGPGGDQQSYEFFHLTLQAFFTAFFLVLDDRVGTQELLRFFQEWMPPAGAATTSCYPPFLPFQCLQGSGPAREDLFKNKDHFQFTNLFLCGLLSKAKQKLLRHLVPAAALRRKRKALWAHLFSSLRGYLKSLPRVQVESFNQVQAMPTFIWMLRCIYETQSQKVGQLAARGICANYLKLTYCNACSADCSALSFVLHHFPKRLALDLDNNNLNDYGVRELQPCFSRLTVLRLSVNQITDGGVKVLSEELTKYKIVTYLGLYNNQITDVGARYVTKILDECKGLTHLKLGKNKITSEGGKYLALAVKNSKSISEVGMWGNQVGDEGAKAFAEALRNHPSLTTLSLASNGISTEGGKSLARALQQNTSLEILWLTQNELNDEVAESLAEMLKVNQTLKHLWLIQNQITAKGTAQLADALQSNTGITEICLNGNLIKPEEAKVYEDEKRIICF
Test: Antagonist activity at human NOD1 expressed in HEK293 cells assessed as reduction in C12-iE-DAP-induced NF-kappaB activation preincubated for 1 hr followed by C12-iE-DAP stimulation and measured after 18 hrs by SEAP reporter gene based spectrophotometric analysis
recorded-endpoint: pIC50
Scale: negative log10 of molar concentration, which is what pIC50 denotes.

Consider the compound CN(C)c1cccc2c(S(=O)(=O)NCCc3nc4ccccc4n3CC(=O)Nc3ccc4c(c3)CCC4)cccc12 and give its recorded pIC50.
5.57

Fill in reported pIC50 for this entry: O=C(CCc1nc2ccccc2n1CC(=O)Nc1ccc2c(c1)CCC2)Nc1ccccc1
4.91

Note pIC50 for the compound shown: O=C(Cn1c(CCCNS(=O)(=O)c2ccccc2)nc2ccccc21)Nc1ccc2c(c1)CCC2
5.03

Quick one: give measured pIC50 for O=C(Cn1c(CCNC(=O)c2ccccc2)nc2ccccc21)Nc1ccc2c(c1)CCC2
4.56

====

Molecular target: Nucleotide-binding oligomerization domain-containing protein 1 (Homo sapiens)
Assay: Antagonist activity at human NOD1 expressed in HEK293 cells assessed as reduction in C12-iE-DAP-induced NF-kappaB activation preincubated for 1 hr followed by C12-iE-DAP stimulation and measured after 18 hrs by SEAP reporter gene based spectrophotometric analysis
recorded-endpoint: IC50 (µM)
Reply with just the number (in µM).

Identify measured IC50 corresponding to CC(C)(C)OC(=O)N1CCC(C(=O)NCCc2nc3ccccc3n2CC(=O)Nc2ccc3c(c2)CCC3)CC1
13.3

Note down IC50 recorded for O=C(Cn1c(CCCNC(=O)c2ccccc2)nc2ccccc21)Nc1ccc2c(c1)CCC2
17.7

Using known records, supply IC50 for O=C(Cn1c(CCNCc2ccccc2)nc2ccccc21)Nc1ccc2c(c1)CCC2
30.7

Where do these numbers come from? They come from ChEMBL document CHEMBL4765256.
